measured_target: mCherry-encoding lentiviral vectors (wild-type reverse transcriptase)
assay_comment: Flow-cytometry based inhibitor analysis, mCherry vector
test_parameters: Figure S2, read-out: IC50 of the wild-type virus, FC-based analysis
measured_quantity: pIC50
pIC50 (log units): -log10 of the concentration in mol/L.

Query string: Returns the measured pIC50 for the input compound. Input: Nc1nc2c(ncn2CCOCP(=O)(O)O)c(=O)[nH]1 [PMEG hydrate]
Result string: 6.25

====

Test system: ecotropic pseudo-typed lentiviral particles (luciferase) in PM1-mCat1 cells
assay_comment: Luciferase-based viral integration assay using PM1-mCat1 cells
test_parameters: Human immunodeficiency virus 1, read-out: IC50 (in µM), viral integration assay
measured_quantity: IC50
Just the number plus its unit, please.

See these solved cases before continuing.
compound: O=C(COc1ccccc1-c1ccccc1)NCc1ccccc1CN1CCOCC1
IC50: 6.94 µM
//
compound: c1coc(-c2noc(CNc3ccccc3-n3cccn3)n2)c1
IC50: 4 µM
//
compound: Cc1ccccc1NC(=O)CNc1ccccc1-c1ccccc1
IC50: 5.61 µM
//
compound: O=C(CSc1nnc(-c2cccc(Cl)c2)n1-c1ccccc1C(F)(F)F)NCc1ccco1
IC50: 4.76 µM
//
compound: Cc1ccc(-n2nnnc2Sc2nnnn2-c2ccccc2)c(C)c1
IC50: 2.98 µM
//
compound: COC(=O)c1ccccc1NS(=O)(=O)c1c(F)cc(F)cc1Br
IC50: 1.35 µM
//
compound: O=c1c2ccccc2nc(CN2CCOCC2)n1Cc1nc(-c2ccc(F)cc2)cs1
IC50: 8.71 µM
//
compound: Cc1nc(SCC(=O)NCCC(C)C)c(C#N)c(C)c1C
IC50: 7.91 µM

Query string: Returns the measured IC50 for the input compound. Input: COc1ccc(N(Cc2ccccc2)S(=O)(=O)c2cccc(C(=O)NCc3ccncc3)c2)cc1
Result string: 3.14 µM

Query string: Returns the measured IC50 for the input compound. Input: O=C(Cc1csc(-c2ccccn2)n1)N=c1sccn1Cc1ccccc1
Result string: 8.3 µM

Query string: Returns the measured IC50 for the input compound. Input: N#Cc1ccccc1S(=O)(=O)N1CCC(CCc2ccccc2)CC1
Result string: 4.27 µM

Query string: Returns the measured IC50 for the input compound. Input: CCOc1ncccc1C(=O)OCc1nc(N)c2c(C)c(C)sc2n1
Result string: 4.7 µM

Query string: Returns the measured IC50 for the input compound. Input: O=C(CSc1nnc(C2CC2)o1)NC(c1ccccc1)c1cccs1 (stereo not shown)
Result string: 1.26 µM

Query string: Returns the measured IC50 for the input compound. Input: O=C(CNc1ccccc1-c1ccccc1)Nc1ccccc1Cl
Result string: 7.79 µM

Query string: Returns the measured IC50 for the input compound. Input: O=C(Nc1ccc2c(c1)OCCCO2)c1cccc(N2CCCC2=O)c1
Result string: 4.12 µM
